B1: unnamed (parent)
chain 1: HSQGTFTSDYSKYLDSRRAQDFVQWLMNTKRNRNNIA
chain 2: RPQGATVSLWETVQKWREYRRQCQRSLTEDPPPATDLFCNRTFDEYACWPDGEPGSFVNVSCPWYLPWASSVPQGHVYRFCTAEGLWLQKDNSSLPWRDLSECEESKRGERSSPEEQLLFLYIIYTVGYALSFSALVIASAILLGFRHLHCTRNYIHLNLFASFILRALSVFIKDAALKWMYSTAAQQHQWDGLLSYQDSLSCRLVFLLMQYCVAANYYWLLVEGVYLYTLLAFSVLSEQWIFRLYVSIGWGVPLLFVVPWGIVKYLYEDEGCWTRNSNMNYWLIIRLPILFAIGVNFLIFVRVICIVVSKLKANLMCKTDIKCRLAKSTLTLIPLLGTHEVIFAFVMDEHARGTLRFIKLFTELSFTSFQGLMVAILYCFVNNEVQLEFRKSWERWRLEHLHIQRDSSMKPLKCPTSSLSSGATAGSSMYTATCQASCS

Variants of: B1
Assay: radioligand competition binding on whole cells
Conditions: with partner chain of the complex shown;; read off a plot
Measured log10 ratio values are reported for all entries that follow.

mutation	measurement unit	log10 ratio
chain 2 R167A	pIC50 ΔWT	0.1
chain 2 W274A	pIC50 ΔWT	-0.4
chain 2 E341A	pIC50 ΔWT	0.3
chain 2 N217A	pIC50 ΔWT	0.3
chain 2 K174A	pIC50 ΔWT	-1.9

Source of measurements: paper PMC8748714
